# TGI annotations
Test system: HCT-116 colon
assay_procedure: NCI tumour cell line growth inhibition, 48 h
Number in µM, nothing else.

Solved entries:
- chemical_structure: "C[C@@H](Oc1cc(-c2cnn(C3CCNCC3)c2)cnc1N)c1c(Cl)cc(F)cc1Cl"
  tested_system: "HCT-116 colon"
  property_label: "TGI"
  measured_number: 5.16
- chemical_structure: "C=C1C(=O)O[C@H]2[C@H]1CC/C(COC(=O)N[C@H](Cc1c[nH]c3ccccc13)C(=O)OC)=C\\CC[C@@]1(C)O[C@@H]21"
  tested_system: "HCT-116 colon"
  property_label: "TGI"
  measured_number: 2.59

Now turn to the next compound.
Short answer for `CCOC(=O)c1cc(C(=O)c2cc(OC)c(OC)c(OC)c2)n2ccc(-c3cc[n+](CC(=O)c4cc(OC)c(OC)c(OC)c4)cc3)cc12` : TGI was 3.5
